In this section, each of the compounds is paired with its reported Kd.
- Measured target: JAK2 (JH1domain-catalytic, Y1007F,Y1008F) kinase (Homo sapiens, UniProt O60674, Y1007F/Y1008F)
- Construct: JAK2 (JH1domain-catalytic, Y1007F,Y1008F) kinase was expressed as N-terminal fusion
- Sequence (O60674 849-1124 Y1007F/Y1008F limits assumed): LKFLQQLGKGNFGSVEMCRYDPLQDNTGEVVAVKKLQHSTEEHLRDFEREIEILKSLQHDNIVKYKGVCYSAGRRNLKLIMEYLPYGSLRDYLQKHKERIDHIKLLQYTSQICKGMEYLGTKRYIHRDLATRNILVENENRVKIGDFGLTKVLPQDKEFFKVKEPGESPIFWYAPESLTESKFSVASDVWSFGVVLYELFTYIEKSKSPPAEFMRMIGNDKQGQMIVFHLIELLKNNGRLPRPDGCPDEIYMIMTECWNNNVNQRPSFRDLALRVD
- Measurement description: JAK2 JH1 Domain Binding Assay
- Test context: qPCR readout

Which measured Kd value corresponds to Cn1c(Nc2cc(C(F)(F)F)cn([C@H]3C[C@@H](O)C3)c2=O)nc2ncc(Oc3cnn4ccccc34)c(C#N)c21 [Example I-167] ? < 10 nM

###

# Kd values compiled below
- Measured target: JAK2 (JH1domain-catalytic, Y1007F,Y1008F) kinase (Homo sapiens, UniProt O60674, Y1007F/Y1008F)
- Construct: JAK2 (JH1domain-catalytic, Y1007F,Y1008F) kinase was expressed as N-terminal fusion
- Measurement description: JAK2 JH1 Domain Binding Assay
- Test context: qPCR readout

Would you mind telling me what Kd value was observed for COc1c(Oc2cnn3ccccc23)cnc2nc(Nc3cc(C4CC4)cn([C@H]4C[C@H](O)C4)c3=O)n(C)c12 [Example I-111] ? < 10 nM

What does the data say about its Kd? Entry: Cn1c(Nc2cc(C(F)(F)F)cn([C@@H]3CC[C@@H]3O)c2=O)nc2ncc(Oc3cnn4ccncc34)c(Cl)c21 (single isomer, unassigned) [Example I-119-a] < 10 nM

Entry under review: CNc1cn2ncc(Oc3cnc4nc(Nc5cc(C(F)(F)F)cn([C@H]6CCOC6)c5=O)n(C)c4c3Cl)c2cn1 (single isomer, unassigned) [Example I-305] . Reported Kd? < 10 nM

Reference for the values: patent US12043632B2
